TEST_SYSTEM: RORγ ligand binding domain (LBD) (Homo sapiens)
Construct: made in house; host or cells: E. coli BL-21 (BL3), vector pDEST15
ASSAY_SUMMARY: TR-FRET Activity Assay (ligand sensing, RORγ-LBD / coactivator peptide interaction)
Format: biochemical
RECORDED_CONDITIONS: read-out: RORγ activity in the TR-FRET Activity Assay (IC50 FRET), Group
This listing pairs compounds with measured IC50.

What value of measured IC50 is listed for Cc1c(S(N)(=O)=O)cc(-c2cn(S(=O)(=O)N(C)C(C)(C)C)c3ccccc23)n1CC1CCCCC1 ?
< 500 nM

Item: Cc1c(S(N)(=O)=O)cc(-c2cnc(NCC(C)(C)C)c(C(F)(F)F)c2)n1CC1CCCCC1
500 to 2000 nM

Item: Cn1c(S(N)(=O)=O)cc(-c2cc(C(C)(C)C)cc(C(C)(C)C)c2)c1CC1CCCCC1
> 2000 nM

Item: Cc1c(S(N)(=O)=O)cc(-c2c(C)n(S(=O)(=O)N3CCCCC3)c3ccccc23)n1CC1CCCCC1
> 2000 nM

Item: Cc1c(S(N)(=O)=O)cc(C2=CC(S(=O)(=O)c3ccc(Cl)cc3)c3ccccc32)n1CC1CCCCC1 (stereo not shown)
500 to 2000 nM

Others:
What value of measured IC50 is listed for Cc1c(S(N)(=O)=O)cc(-c2cc(OCCCN3CCOCC3)nc(C(C)(C)C)c2)n1CC1CCCCC1 ?
> 2000 nM

Item: Cc1c(S(N)(=O)=O)cc(-c2cn(S(=O)(=O)c3cccc(Cl)c3)c3ccccc23)n1CC1CCCCC1
> 2000 nM

Item: Cc1c(S(N)(=O)=O)cc(-c2cc(C(C)(C)C)c(F)c(C(C)(C)C)c2)n1CC1CCCCC1
< 500 nM

Item: Cc1c(S(=O)(=O)NCc2nc(C(=O)O)co2)cc(-c2cc(C(C)(C)C)cc(C(C)(C)C)c2)n1CC1CCCCC1
500 to 2000 nM

Item: Cc1c(S(N)(=O)=O)cc(-c2ccc(S(=O)(=O)NC(C)(C)C)c(C(F)(F)F)c2)n1CC1CCCCC1
< 500 nM

Item: Cc1c(S(N)(=O)=O)cc(-c2cc(C(=O)NC(C)(C)C)nc(C(C)(C)C)c2)n1CC1CCCCC1
500 to 2000 nM

====

This listing pairs compounds with measured pIC50.
TEST_SYSTEM: RORγ ligand binding domain (LBD) (Homo sapiens, UniProt P51449)
Construct: made in house; host or cells: E. coli BL-21 (BL3), vector pDEST15
ASSAY_SUMMARY: TR-FRET Activity Assay (ligand sensing, RORγ-LBD / coactivator peptide interaction)
Type: biochemical
RECORDED_CONDITIONS: read-out: RORγ activity in the TR-FRET Activity Assay (IC50 FRET), Group
pIC50: −log10 of the molar value.

Reference set, count: 10
What value of measured pIC50 is listed for Cc1c(S(N)(=O)=O)cc(-c2cc(O)cc(C(C)(C)C)c2)n1CC1CCCCC1 ?
< 5.70

Item: Cc1c(S(N)(=O)=O)cc(-c2ccc(N3CCOCC3)c(C(C)(C)C)c2)n1CC1CCCCC1
5.70 to 6.30

Item: Cc1c(S(N)(=O)=O)cc(-c2ccc(S(=O)(=O)NC(C)(C)CCO)c(C(F)(F)F)c2)n1CC1CCCCC1
5.70 to 6.30

Item: Cc1c(S(N)(=O)=O)cc(-c2ccc(S(=O)(=O)NC(C)(C)C)c(C3(C)CC3)c2)n1CC1CCCCC1
> 6.30

Item: CC(=O)NCC(C)(C)c1cc(-c2cc(S(N)(=O)=O)c(C)n2CC2CCCCC2)cc(C(C)(C)C)c1
< 5.70

Item: Cc1c(S(=O)(=O)NCCCCCO)cc(-c2cc(C(C)(C)C)cc(C(C)(C)C)c2)n1CC1CCCCC1
> 6.30

Item: Cc1c(S(N)(=O)=O)cc(-c2cc(OC(C)C)cc(C(C)(C)C)c2)n1CC1CCCCC1
5.70 to 6.30

Item: CNC(=O)COc1c(C(C)(C)C)cc(-c2cc(S(N)(=O)=O)c(C)n2CC2CCCCC2)cc1C(C)(C)C
< 5.70

Item: Cc1c(S(N)(=O)=O)cc(-c2cc(C(C)(C)O)c3c(c2)C2(CCO3)CC2)n1CC1CCCCC1
< 5.70

Item: Cc1c(S(N)(=O)=O)cc(-c2cc(OCC3CC3)cc(C(C)(C)C)c2)n1CC1CCCCC1
5.70 to 6.30

Others:
What value of measured pIC50 is listed for Cc1c(S(N)(=O)=O)cc(-c2cc(C(F)(F)F)c(=O)n(CC(C)(C)C)c2)n1CC1CCCCC1 ?
< 5.70

Item: Cc1c(S(N)(=O)=O)cc(-c2cc(C(C)(C)C)cc(C3(C)CC3)c2)n1CC1CCCCC1
> 6.30

Item: Cc1c(S(N)(=O)=O)cc(-c2cc(C(C)(C)C)cc(S(=O)(=O)NC(C)(C)C)c2)n1CC1CCCCC1
< 5.70

Item: Cc1c(S(N)(=O)=O)cc(-c2cnc(OCC(C)(C)C)c(C(F)(F)F)c2)n1CC1CCCCC1
< 5.70

Item: CCC(C)(C)NS(=O)(=O)c1ccc(-c2cc(S(N)(=O)=O)c(C)n2CC2CCCCC2)cc1C(F)(F)F
> 6.30

Item: Cc1c(S(N)(=O)=O)cc(-c2cc(C(C)(C)C)cc(C(C)(C)C#N)c2)n1CC1CCCCC1
5.70 to 6.30

====

This listing pairs molecules with measured pIC50.
TEST_SYSTEM: RORγ ligand binding domain (LBD) (Homo sapiens)
Construct: made in house; host or cells: E. coli BL-21 (BL3), vector pDEST15
ASSAY_SUMMARY: TR-FRET Activity Assay (ligand sensing, RORγ-LBD / coactivator peptide interaction)
Type: biochemical
RECORDED_CONDITIONS: read-out: RORγ activity in the TR-FRET Activity Assay (IC50 FRET), Group
pIC50: −log10 of the molar value.

Kindly state the measured pIC50 obtained for Cc1c(S(N)(=O)=O)cc(-c2ccc(S(=O)(=O)N3CCCCC3)c(C(C)(C)C)c2)n1CC1CCCCC1 with RORγ ligand binding domain (LBD) (Homo sapiens).
> 6.30

Item: CC(C)(C)c1cc(-c2cc(S(N)(=O)=O)cn2CC2CCCCC2)cc(C(C)(C)C)c1
> 6.30

Item: Cc1c(S(N)(=O)=O)cc(-c2cn(S(=O)(=O)c3ccccc3Cl)c3ccccc23)n1CC1CCCCC1
5.70 to 6.30

Item: Cc1c(S(N)(=O)=O)cc(-c2cc(C(C)(C)C)nc(C(C)(C)C)c2)n1CC1CCCCC1
> 6.30

Item: Cc1c(S(N)(=O)=O)cc(-c2cc(C(C)(C)C)c(C(=O)O)c(C(C)(C)C)c2)n1CC1CCCCC1
< 5.70

Item: Cc1c(S(N)(=O)=O)cc(-c2ccc(S(=O)(=O)N3CCC(C)CC3)c(C(C)(C)C)c2)n1CC1CCCCC1
5.70 to 6.30

We next turn to a different molecule, shown below.
Kindly state the measured pIC50 obtained for Cc1c(S(N)(=O)=O)cc(-c2cc(C(C)(C)C)cc(C(C)(C)CNC(=O)C3CC3)c2)n1CC1CCCCC1 with RORγ ligand binding domain (LBD) (Homo sapiens).
< 5.70

====

TEST_SYSTEM: RORγ ligand binding domain (LBD) (Homo sapiens, UniProt P51449)
Construct: made in house; host or cells: E. coli BL-21 (BL3), vector pDEST15
Sequence (P51449 269-508 limits assumed): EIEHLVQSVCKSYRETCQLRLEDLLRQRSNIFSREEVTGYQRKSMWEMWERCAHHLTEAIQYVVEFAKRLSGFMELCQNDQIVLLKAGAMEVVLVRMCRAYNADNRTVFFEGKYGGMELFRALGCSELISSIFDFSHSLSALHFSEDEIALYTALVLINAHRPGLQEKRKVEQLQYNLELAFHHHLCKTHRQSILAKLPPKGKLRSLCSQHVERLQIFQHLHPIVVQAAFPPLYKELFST
ASSAY_SUMMARY: TR-FRET Activity Assay (ligand sensing, RORγ-LBD / coactivator peptide interaction)
Type: biochemical
RECORDED_CONDITIONS: read-out: RORγ activity in the TR-FRET Activity Assay (IC50 FRET), Group
pIC50: −log10 of the molar value.
METRIC_NAME: pIC50

Reference set, count: 3
Kindly state the measured pIC50 obtained for Cc1c(S(N)(=O)=O)cc(-c2cc(C(F)(F)F)c3c(c2)C2(CCO3)CC2)n1CC1CCCCC1 with RORγ ligand binding domain (LBD) (Homo sapiens, UniProt P51449).
5.70 to 6.30

Item: Cc1c(S(=O)(=O)NCCN2CCOCC2)cc(-c2cc(C(C)(C)C)cc(C(C)(C)C)c2)n1CC1CCCCC1
> 6.30

Item: Cc1c(S(N)(=O)=O)cc(-c2cc(C(C)(C)C)cc(C(C)(C)C(=O)O)c2)n1CC1CCCCC1
< 5.70

Others:
Kindly state the measured pIC50 obtained for COCCOc1c(C(C)(C)C)cc(-c2cc(S(N)(=O)=O)c(C)n2CC2CCCCC2)cc1C(C)(C)C with RORγ ligand binding domain (LBD) (Homo sapiens, UniProt P51449).
5.70 to 6.30

Item: Cc1c(S(N)(=O)=O)cc(-c2cc(OCCCC(=O)O)cc(C(C)(C)C)c2)n1CC1CCCCC1
< 5.70

Item: Cc1c(S(=O)(=O)NCCC(=O)O)cc(-c2cc(C(C)(C)C)cc(C(C)(C)C)c2)n1CC1CCCCC1
5.70 to 6.30

Item: Cc1c(S(=O)(=O)N2CCOCC2)cc(-c2cc(C(C)(C)C)cc(C(C)(C)C)c2)n1CC1CCCCC1
> 6.30
